- Study Target: T1, GLP-1R Q211A (Homo sapiens)
- T1 chain: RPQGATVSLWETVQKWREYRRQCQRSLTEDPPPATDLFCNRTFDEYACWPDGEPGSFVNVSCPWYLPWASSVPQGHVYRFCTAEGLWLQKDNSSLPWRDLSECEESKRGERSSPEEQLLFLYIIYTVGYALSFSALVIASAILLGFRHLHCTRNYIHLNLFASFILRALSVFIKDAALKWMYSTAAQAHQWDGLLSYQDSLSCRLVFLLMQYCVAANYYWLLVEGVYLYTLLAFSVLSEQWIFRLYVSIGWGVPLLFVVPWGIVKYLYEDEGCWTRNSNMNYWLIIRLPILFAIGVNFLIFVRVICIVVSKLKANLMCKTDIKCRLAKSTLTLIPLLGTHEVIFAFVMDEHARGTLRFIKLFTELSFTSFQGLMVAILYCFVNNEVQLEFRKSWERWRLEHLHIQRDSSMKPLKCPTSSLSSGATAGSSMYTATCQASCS
No end group written: not given here.
Provide the reported IC50 of each item.
Response body: numeric value in nM, unit text excluded.

Prompt line: Item under review: HAEGTFTSDVSSYLEGQAAKEFIAWLVKGR (not fully specified (C-terminus)) [glucagon-like peptide-1] . Reported IC50?
Response line: 2.34

Prompt line: If you can, please state the reported IC50 value of HSQGTFTSDYSKYLDSRRAQDFVQWLMNTKRNRNNIA [oxyntomodulin] .
Response line: 19.5

FYI, the data here is from paper PMC8748714.
